Target: KDM4B-DTD N960A (human, UniProt O94953 917-1031, N960A)
Sequence (O94953 917-1031 N960A): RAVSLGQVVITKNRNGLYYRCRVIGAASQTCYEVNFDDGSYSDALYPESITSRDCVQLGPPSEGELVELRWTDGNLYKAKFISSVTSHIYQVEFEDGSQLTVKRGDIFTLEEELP
Test: FP
pKd: −log10 of the molar value. No end group written: not given here.
outcome_measure: pKd

binder: RKQLATK(Me3)AARKSAPAT (also: fluorescein label, end not given here) [H3 (17-32) K23me3 peptide, fluorescein-labelled]
outcome_measure: pKd
endpoint_result: 3.97
